Would you kindly list pIC50 for each of these compounds?
# Test system: MCF7
# test_protocol: Cytotoxicity against human MCF7 cells compound treated for 6 hrs measured 48 hrs post washout by MTT assay
# Type: functional, cell-based
pIC50: −log10 of the molar value.

# annotated cases, reported pIC50 shown
Cn1c(-c2cc(-c3ccccc3O)no2)cc(Br)c1Br : ≤ 4.00
Cn1c(-c2cc(-c3ccccc3)no2)cc(Br)c1Br : ≤ 4.00

We next turn to a different compound, shown below.
Query the reported pIC50 for MCF7; item: Brc1cc(-c2cc(-c3ccc[nH]3)no2)[nH]c1Br
≤ 4.00
